system: CAKI-1 renal; assay: NCI tumour cell line growth inhibition, 48 h
value-type: TGI (µM)
Give the value in µM but do not write µM after it.

For orientation, consider the following solved cases.
molecule: ClCCN(CCCl)c1ccc(-n2cnc3c(Cl)ncnc32)cc1
recorded-result: 2.05
//
molecule: Brc1ccc([I+]c2ccc(Br)cc2)cc1
recorded-result: 8.98

Fill in: TGI of CN(C)CCn1c2ccccc2c2nc3cc4ccccc4cc3nc21 is ___
20

Proceed to O=C1OCC(C#Cc2ccccc2)=C1Cl
26.7

====

Recorded TGI by entry
system: OVCAR-3 ovarian; experiment: NCI tumour cell line growth inhibition, 48 h

molecule: O=C(Oc1ccccc1)c1cc2cc(CCl)ccc2oc1=O
TGI: > 100 µM
//
molecule: O=Cc1ccc(-c2ccc(-c3ccc(C=O)s3)o2)s1
TGI: 5.89 µM
//
molecule: COC(=O)c1ccccc1NC(=O)/C(=N\NC(C)(C)C)C(C#N)c1nc(-c2ccc([N+](=O)[O-])cc2)cs1 (stereo not given)
TGI: > 100 µM
//
molecule: CC(=O)Nc1ccc(CNc2cc(=O)[nH]c(=O)[nH]2)cc1
TGI: > 100 µM

Let us move to another entry and its TGI.
Any idea what TGI came out for O=C(CSc1nc(=O)[nH]c2nc[nH]c12)Nc1ccccc1 on OVCAR-3 ovarian?
> 100 µM

====

Recorded TGI by entry
tested on: SW-620 colon; test: NCI tumour cell line growth inhibition, 48 h

For orientation, consider the following solved cases.
compound: CC(C)C(=O)N[C@@H](C)C(=O)N(Cc1ccc2ccccc2c1)N=O
recorded-result: > 100 µM
--
compound: CC(C)(C)c1ccc([I+]c2ccc(C(C)(C)C)cc2)cc1
recorded-result: 10.7 µM
--
compound: COc1ccc2c(c1)c(C1(c3cn(C)c4ccc(OC)cc34)C(=O)Nc3ccc(F)cc31)cn2C
recorded-result: > 100 µM
--
compound: CCCCCCCCCCCC(=O)OCC1OC(n2cc(F)c(=O)[nH]c2=O)C(N)C(OC(=O)CCCCCCCCCCC)C1O (stereo not given)
recorded-result: > 100 µM

Fill in: TGI of Cn1c(CCC#N)nc2ccc(Br)cc2c1=O is ___
> 100 µM

====

Recorded TGI by entry
tested on: BT-549 breast; assay: NCI tumour cell line growth inhibition, 48 h

compound: CCC(Sc1nnc2c3ccccc3n(CC)c2n1)C(=O)Nc1ccccc1OC (stereo unspecified)
target-or-system: BT-549 breast
TGI: > 100 µM

compound: O=C(O)CSCC(=O)Nc1ccc2cccc3c2c1CC3
target-or-system: BT-549 breast
TGI: > 100 µM

compound: CCCN1C(=O)CCC2=C1CCc1c2ccc(Cl)c1Cl
target-or-system: BT-549 breast
TGI: > 100 µM

compound: Nc1ccc2c(c1)C(=O)c1c(F)cccc1-2
target-or-system: BT-549 breast
TGI: > 100 µM

compound: Cc1ccc2c(c1)NC(=O)CCSSCCC(=O)N2
target-or-system: BT-549 breast
TGI: > 100 µM

compound: Cc1nn(C(=O)c2ccc(Cl)cc2)c2c1C(c1ccc([N+](=O)[O-])cc1)SC(N)=N2 (stereo unspecified)
target-or-system: BT-549 breast
TGI: > 10 µM

compound: Cc1ccc(/C=C/C(=O)c2c([O-])on[n+]2-c2ccccc2)cc1
target-or-system: BT-549 breast
TGI: 6.09 µM

compound: CC(ONC(=O)c1cc(C(F)(F)F)cc(C(F)(F)F)c1)C(=O)Nc1ccc(Cl)cc1 (stereo unspecified)
target-or-system: BT-549 breast
TGI: 16.7 µM

Fill in: TGI of O=P(O)(O)C(O)/C=C/c1ccccc1 (stereo unspecified) is ___
> 100 µM

Proceed to CC(C)OP(=O)(CN(C)/C(F)=N\C(F)(F)F)OC(C)C
> 100 µM

Proceed to N#Cc1ccccc1C#C/C=C\C#Cc1ccc(OCCCNC(=O)c2cc3ccccc3[nH]2)cc1
> 100 µM

====

system: SR leukemia; assay: NCI tumour cell line growth inhibition, 48 h
value-type: TGI (µM)
Give the value in µM but do not write µM after it.

molecule: Cn1c(=O)cc2c3c(c(NCCCO)ccc31)C(=O)c1ccccc1-2
recorded-result: 13.4

Let us move to another entry and its TGI.
Fill in: TGI of CC(C)CCC1(O)O[C@H]2C[C@H]3[C@@H]4CCC5CC(=O)C=C[C@]5(C)[C@H]4CC[C@]3(C)[C@H]2[C@@H]1C (stereo not given in full) is ___
22.6

====

tested on: NCI/ADR-RES ovarian; assay: NCI tumour cell line growth inhibition, 48 h
Recorded GI50 by entry

For orientation, consider the following solved cases.
compound: COc1cc(CSc2nc3ccc(C)cc3c(=O)n2Cc2ccccc2)cc(OC)c1OC
GI50: 1.51 µM
//
compound: COCCOC(=O)C1=C(C)NC2=C(C(=O)CC(c3ccccc3OC)C2)C1c1cccc(O)c1 (centres undefined)
GI50: 35.9 µM
//
compound: CS(=O)(=O)CCNCc1ccc(-c2ccc3ncnc(Nc4ccc(OCc5cccc(C(F)(F)F)c5)cc4)c3c2)o1
GI50: 7.19 µM
//
compound: CCCN(CCC)c1ccc(CO)c(C)c1
GI50: > 100 µM
//
compound: COc1ccc(-c2n[nH]nc2-c2csc3ccccc23)cc1OC
GI50: 2.39 µM

Fill in: GI50 of COC(CCP(=O)(c1ccccc1)c1ccccc1)(C(=O)c1ccccc1)c1ccccc1 (centres undefined) is ___
4.93 µM

Proceed to ClCCN(CCCl)c1ccc(-n2cnc3c(Cl)ncnc32)cc1
4.15 µM

Proceed to CCCCCCCCCCCCCCCc1cc(O)ccc1N
5.81 µM

Proceed to CCC[C@H](N[C@@H]1CCc2cc(F)cc(F)c2C1)C(=O)Nc1cn(C(C)(C)CNCC(C)(C)C)cn1
15.3 µM

====

system: OVCAR-5 ovarian; experiment: NCI tumour cell line growth inhibition, 48 h
value-type: TGI (µM)
Give the value in µM but do not write µM after it.

For orientation, consider the following solved cases.
compound: O=C1OCC(C#Cc2ccccc2)=C1Cl
value-type: TGI
measure-unit: µM
recorded-result: 15

compound: CCc1c2c(nc3cc4c(cc13)OCO4)-c1cc3c(c(=O)n1C2)COC(=O)[C@@]3(CC)OC(=O)CN
value-type: TGI
measure-unit: µM
recorded-result: 0.417

compound: COc1cccc(/C=N\Nc2ccc([N+](=O)[O-])cn2)c1O
value-type: TGI
measure-unit: µM
recorded-result: 82.7

compound: COc1ccc2c3c1OC1C(=O)C=CC4(O)C(C2)NCC[C@@]314 (some centres not stated)
value-type: TGI
measure-unit: µM
recorded-result: 8.84

compound: CN1CCN(c2ccc3nc(-c4cc(C(C)(C)C)c(O)c(C(C)(C)C)c4)[nH]c3c2)CC1
value-type: TGI
measure-unit: µM
recorded-result: 12

compound: CCCN1C(=O)CCC2=C1CCc1c2ccc(Cl)c1Cl
value-type: TGI
measure-unit: µM
recorded-result: 82

compound: CCN(CC)c1ccc2c(c1)Oc1nc(N)c(C#N)c(N)c1C2Sc1ccc(SC)cc1 (configuration not stated)
value-type: TGI
measure-unit: µM
recorded-result: 4.75

compound: Cc1ccc(/C=C/C(=O)c2c([O-])on[n+]2-c2ccccc2)cc1
value-type: TGI
measure-unit: µM
recorded-result: 15.5

Fill in: TGI of CCCCCCCCCCCCCCCC(=O)OCC(O)C1OC(=O)C(O)=C1O (configuration not stated) is ___
95.4

Proceed to CC(=O)C1=C(N=[N+]=[N-])c2cccc3cccc(c23)C1=O
54.8

====

tested on: UACC-257 melanoma; experiment: NCI tumour cell line growth inhibition, 48 h
Recorded TGI by entry
Give the value in µM but do not write µM after it.

For orientation, consider the following solved cases.
compound: COc1ccc2c3c1OC1C(=O)C=CC4(O)C(C2)NCC[C@@]314 (stereo not given in full)
measure-unit: µM
recorded-result: 5.3

compound: CC(C)C(C/C=C1/CC(CO)(COC(=O)CC(C(C)C)C(C)C)OC1=O)C(C)C (stereo not given)
measure-unit: µM
recorded-result: 30.3

compound: CO[C@@H]1[C@@H](OC2OC(C)C(OC3CC(C)(O)C(OC(=O)CC(C)C)C(C)O3)C(N(C)C)C2O)[C@@H](CC=O)C[C@@H](C)C(=O)/C=C/C2O[C@H]2C[C@@H](C)OC(=O)C[C@H]1OC(C)=O (stereo not given in full)
measure-unit: µM
recorded-result: 34

compound: CC(C)(C)c1ccc([I+]c2ccc(C(C)(C)C)cc2)cc1
measure-unit: µM
recorded-result: 2.54

Let us move to another entry and its TGI.
Fill in: TGI of CN1CCN(c2ccc3c4c(cccc24)C(=O)N(CCN2CCN(CCCN4CCN(CCN5C(=O)c6cccc7c(N8CCN(C)CC8)ccc(c67)C5=O)CC4)CC2)C3=O)CC1 is ___
18.4
